# Tested on: PC26
# assay_remarks: qHTS profiling for inhibitors of Plasmodium falciparum proliferation (AID 504749); also: nearly all actives have a fitted effect of over 60% in size
# conditions_used: P. falciparum in erythrocytes, SYBR Green DNA, 72 h; series mostly up to 28.7 µM
Records with an inconclusive call do not appear. Active and inactive are the calls of the source. Calls follow the shape of the dose curve; as a rule, active = well fitted inhibition curve with a large enough effect; inconclusive = small, poorly fitted or top-dose-only effect; inactive = flat fitted curve, though single readings scatter.
Outcomes: active, inactive

| compound | qualitative_label |
| --- | --- |
| O=C(O)CO.[NH2-].[NH2-].[Pt+2] | inactive |
| CC(C)(C)NC(=O)[C@H]1CN(Cc2cccnc2)CCN1C[C@@H](O)C[C@@H](Cc1ccccc1)C(=O)N[C@H]1c2ccccc2C[C@H]1O | active |
| CC[C@H]1CN2CCc3cc(OC)c(OC)cc3[C@H]2C[C@@H]1C[C@@H]1NCCc2cc(OC)c(OC)cc21 | active |
| COc1c(N2C[C@@H]3CCCN[C@H]3C2)c(F)cc2c(=O)c(C(=O)O)cn(C3CC3)c12 | inactive |
| Nc1ccc(S(=O)(=O)Nc2ncccn2)cc1 | inactive |
| COC(=O)C1=C(C)NC(C)=C(C(=O)OCCN2CCN(C(c3ccccc3)c3ccccc3)CC2)C1c1cccc([N+](=O)[O-])c1 (configuration not stated) | active |
| O=c1[nH]c(=O)n(C2CCCO2)cc1F (configuration not stated) | inactive |
